What log10(Kd) was measured for each of the following?
MEASUREMENT TARGET: T1, soluble human FcRn (human, UniProt P55899 24-297; P61769 21-119, biotinylated (Sulfo-NHS-LC-Biotin) in the ELISA; amine-coupled to CM5 chip in SPR)
T1 construct: also called shFcRn; biotinylated shFcRn
T1 sequence (P55899 24-297 limits assumed, chain 1 of 2): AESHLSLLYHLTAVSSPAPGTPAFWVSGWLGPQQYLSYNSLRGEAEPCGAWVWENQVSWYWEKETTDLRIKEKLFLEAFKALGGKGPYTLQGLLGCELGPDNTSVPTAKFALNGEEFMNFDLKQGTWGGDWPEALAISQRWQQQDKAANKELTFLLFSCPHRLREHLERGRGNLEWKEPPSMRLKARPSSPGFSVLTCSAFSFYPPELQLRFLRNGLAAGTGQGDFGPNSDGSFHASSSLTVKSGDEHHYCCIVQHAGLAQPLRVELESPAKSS
T1 sequence (P61769 21-119 limits assumed, chain 2 of 2): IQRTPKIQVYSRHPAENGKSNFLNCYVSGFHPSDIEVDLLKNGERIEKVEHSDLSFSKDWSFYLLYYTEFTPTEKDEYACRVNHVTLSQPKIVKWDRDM
TEST NAME: SPR, pH 6
Form field - Quantity: Kd; Unit: µM; Scale: log10

The recorded log10(Kd) for entry QRFXTGHXGGLYPCNGP (Pen at 4; 4-amino-Phe at 8; disulfide; C-terminal amide) [Peptide No. 55] equals 0.00

QRFXTGHXGGLYPCNGP (Pen at 4; 3-MePhe at 8; disulfide; C-terminal amide) [Peptide No. 89] yielded log10(Kd) of -0.17

Quick batch: log10(Kd) for everything below.
1. QRFXTGHXGGLYPCNGP (Pen at 4; PheNHAc at 8; disulfide; C-terminal amide) [Peptide No. 94]
2. QRFXTGHXGGLYPCNGP (Pen at 4; 4-MePhe at 8; disulfide; C-terminal amide) [Peptide No. 90]
3. QRFXTGHXGGLYPCNGP (Pen at 4; 2-napthylalanine at 8; disulfide; C-terminal amide) [Peptide No. 62]
4. QRFXTGHXGGLYPCNGP (Pen at 4; 2-MePhe at 8; disulfide; C-terminal amide) [Peptide No. 88]
5. QRFXTGHXGGLYPCNGP (Pen at 4; 4-methoxy-Phe at 8; disulfide; C-terminal amide) [Peptide No. 56]
6. QRFXTGHXGGLYPCNGP (Pen at 4; 3-PyridylAla at 8; disulfide; C-terminal amide) [Peptide No. 59]

stdout:
[2.43, -0.70, 1.04, -0.70, 1.26, 1.28]

Batch request: log10(Kd) for each of the following binders.
1. QRFXTGHFGGLYPCNGP (Pen (L-penicillamine) at 4; disulfide; C-terminal amide) [Peptide No. 32]
2. QRFXTGHXGGLYPCNGP (Pen at 4; pentafluoro-Phe at 8; disulfide; C-terminal amide) [Peptide No. 57]

stdout:
[-0.60, 1.85]
